Catalogue of binders with associated pKd
- measuredTarget: T1, extracellular domain of rhesus monkey BCMA (rhesus monkey, UniProt F7FFA0 1-53)
- T1 construct: extracellular domain; also called RhBCMA
- T1 sequence (F7FFA0 entry or part of it): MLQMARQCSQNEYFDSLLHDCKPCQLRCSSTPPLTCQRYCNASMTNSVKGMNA
- experimentalProtocol: Octet BLI; Fab 200 nM
pKd: −log10 of the molar value.

binder	pKd
AB200-(2Vk30)_R2-VH-v4 (Fab, V domains shown) VH: QVQLVQSGAEVKKPGSSVKVSCKASGGTFTNYWIHWVRQAPGQGLEWMGATYRSHSDTNYAQKFKSRVTITADKSTSTAYMELSSLRSEDTAVYYCARGAIYHGYDVIENWGQGTLVTVSS VL: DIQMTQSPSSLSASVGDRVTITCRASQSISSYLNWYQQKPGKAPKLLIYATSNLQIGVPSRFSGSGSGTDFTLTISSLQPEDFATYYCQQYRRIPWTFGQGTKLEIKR	6.90
AB200-(2Vk30)_R2-VH-v30 (Fab, V domains shown) VH: QVQLVQSGAEVKKPGSSVKVSCKASGGTFSNYWIHWVRQAPGQGLEWMGATYRSHSDTNYAQKFKSRVTITADKSTSTAYMELSSLRSEDTAVYYCARGAIYHGYDVIENWGQGTLVTVSS VL: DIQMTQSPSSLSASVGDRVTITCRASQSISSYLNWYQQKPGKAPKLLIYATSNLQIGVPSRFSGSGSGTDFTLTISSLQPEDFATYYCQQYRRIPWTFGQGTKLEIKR	6.85
AB200-(2Vk30)_R2-VH-v16 (Fab, V domains shown) VH: QVQLVQSGAEVKKPGSSVKVSCKASGGSFSNYWIHWVRQAPGQGLEWMGGTYRSHSDTNYNQKFKSRVTITADKSTSTAYMELSSLRSEDTAVYYCARGAIFHGYDVIDNWGQGTLVTVSS VL: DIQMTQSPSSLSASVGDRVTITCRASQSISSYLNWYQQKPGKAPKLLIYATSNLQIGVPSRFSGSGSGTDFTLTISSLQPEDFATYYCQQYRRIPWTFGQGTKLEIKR	6.75
